Data origin, for the record: patent US20130078216A1

Target: T1, (His)6-Human ASGPR H1 Stalk Domain (human, UniProt P07306 62-153)
T1 construct: Biotinylated and immobilised on a streptavidin chip; also called human (His)6-ASGPR H1 stalk domain; (His)6-human ASGPR H1 stalk domain residues glutamine 62-cysteine 153
T1 sequence: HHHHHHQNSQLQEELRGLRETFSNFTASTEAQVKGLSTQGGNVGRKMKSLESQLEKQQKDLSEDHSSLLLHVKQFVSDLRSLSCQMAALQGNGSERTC
Assay: BIAcore, biotinylated stalk domain on a streptavidin chip, flow 40 µl/min

# binder, binding result
rows = [
    ("DOM26h-220-1 (other, not shown: small tags and cut ends) VH: EVQLLESGGGLVQPGGSLRLSCAASGFTFEDYGMGWVRQAPGKGLEWVSAIGRNGSQTYYADSVKGRFTISRDNSKNTLYLQMNSLRAEDTAVYYCAKLRRGRGLNTFTLDYWGQGTLVTVSS", "no binding"),
    ("DOM26h-210-2 (other, not shown: small tags and cut ends) VH: ELQLLEFGGGLVQPGGSLRLSCTTSGFTFSRYTMGWVRQAPGKGLEWVSAIGPPGSNTYYADSVKGRFTISRDNSKNTLYLQMNSLRAEDTAVYYCAKWVMLRGRFDYWGQGTLVTVSS", "no binding"),
    ("DOM26h-161-84 (other, not shown: small tags and cut ends) VL: DIQMTQSPSSLSASVGDRVTITCRASQAIGRWLLWYQQKPGKAPKLLIGPGSRLRSGVPSRFSGSGSGTDFTLTISSLQPEDFVTYYCQQAYAWPPTFGQGTKVEIKR", "no binding"),
]
